Values from patent US20240239878A1

assay target: T1, human DLL3 on SHP-77 cells (human, UniProt Q9NYJ7 27-618)
T1 construct: also called DLL3-expressing cells (SHP-77)
T1 sequence: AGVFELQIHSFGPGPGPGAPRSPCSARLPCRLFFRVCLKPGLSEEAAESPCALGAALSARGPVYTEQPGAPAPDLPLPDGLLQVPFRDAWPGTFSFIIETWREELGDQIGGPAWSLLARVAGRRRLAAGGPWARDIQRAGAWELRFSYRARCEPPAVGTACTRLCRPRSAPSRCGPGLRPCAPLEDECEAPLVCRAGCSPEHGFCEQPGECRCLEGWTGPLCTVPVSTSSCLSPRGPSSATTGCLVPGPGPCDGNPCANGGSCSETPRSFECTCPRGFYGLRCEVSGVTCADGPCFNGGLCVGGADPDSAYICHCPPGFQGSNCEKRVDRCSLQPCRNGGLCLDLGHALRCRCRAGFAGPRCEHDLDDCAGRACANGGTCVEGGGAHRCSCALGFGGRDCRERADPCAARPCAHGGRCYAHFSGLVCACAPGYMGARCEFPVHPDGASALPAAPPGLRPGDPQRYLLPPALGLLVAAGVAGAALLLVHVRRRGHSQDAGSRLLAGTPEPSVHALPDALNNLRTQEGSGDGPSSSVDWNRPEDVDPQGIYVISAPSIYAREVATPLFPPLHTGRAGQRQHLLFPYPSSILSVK
protocol summary: flow cytometry, SHP-77 cells
observed property: Top MFI (MFI)
Lab book: enter the figure in MFI, no units written.

Solved entries:
binder: 39E2D11-1 mouse hybridoma-derived anti-DLL3 chimeric antibody (antibody, V domains shown) VH: QVQLQQSGAELVKPGASVKMSCKASGYTFISYWITWVKQRPGQGLEWIGDIYPGSGSTTNYNEKFKSKATLTVDTSSSTAYMQLSSLTSEDSAVYYCARETTVGGAYAMDYWGQGTSVTVSS VL: DIVLTQSPATLSVTPGDSVSLSCRASQSINNNLHWYQQKSHESPRLLIKYVSQSISGIPSRFSGSGSGTDFTLTINSVETEDFGMYFCQQTNSWPLTFGAGTKLELK
scale unit: MFI
Top MFI: 999
--
binder: 47E12D12-1 mouse hybridoma-derived anti-DLL3 chimeric antibody (antibody, V domains shown) VH: EVQLVESGGGLVKPGGSLKLSCAASGFTFSDYGMHWVRQAPEKGLEWVAYISSGSSTIYYADTVKGRFTISRDNAKNTLFLQMTSLRSEDTAMYYCARNSRGFAYWGQGTLVTVSA VL: DIVLTQSPAIMSASPGEKVTMTCSASSSVSYMYWYQQKPGSSPRLLIYDTSNLASGVPVRFSGSGSGTSYSLTISRMEAEDAATYYCQQWSSYPRTFGGGTKLEIK
scale unit: MFI
Top MFI: 178
--
binder: 45E4D7 mouse hybridoma-derived anti-DLL3 chimeric antibody (antibody, V domains shown) VH: QVQLQQPGAELVKPGTSVKLSCKASGYTFTSHWITWVKQRPGQGLEWIGDIYPISGSTNNNEKFRNKATLTVDTSSSTAYMQLSSLTSEDSAVYFCAKIITVGGAYVMDYWGQGTSVTVSS VL: DIVLTQSPVTLSVTPGDSVSLSCRASQSVRNNLHWYQQKSHESPRLLIKYVSQSISGIPSRFSGSGSGTDFTLSINSVETEDFGVYFCQQSNSWPLTFGAGTKLELK
scale unit: MFI
Top MFI: 965
--
binder: 26C4D2 mouse hybridoma-derived anti-DLL3 chimeric antibody (antibody, V domains shown) VH: QVQLQQPGAELVKPGASVKLSCKASGYSFTSYWMHWVKQRPGQGLEWIGMIHPTLGDTNYNEKFKSKATLTVDKSSSTAYMELSSLTSEDSAVYYCARLGSLSMMDYWGQGTSVTVSS VL: DIQMTQTTSSLSASLGDRVTISCSASQGISNYLNWYQQKPDGTVKLLIYYTSSLHSGVPARFSGSGSGTDYSLTISNLEPEDIAIYYCQQYSKFPYTFGGGTKLEIK
scale unit: MFI
Top MFI: 1050

Now examine the next entry.
So for 46A5A4 mouse hybridoma-derived anti-DLL3 chimeric antibody (antibody, V domains shown) VH: QVQLQQSDAELVKPGASVKISCKVSGYTFTDHTIHWMKQRPEQGLEWIGYIYPRDGYTMYNEKFKGKATLTADKSSSTAYMQLNSLTSEDSAVHFCARAFHALDYWGQGTSVTVSS VL: DIQMTQTTSSLSASLGDRVTFTCSASQGISNYLNWYQQKPDGTIKLLIYYTSSLHSGVPSRFSGSGSGTDYSLTISNLEPEDIATYYCQQYSKLPYTFGGGTKLEIK , the logged Top MFI turned out to be 1010
